Test system: Escherichia coli TOP10;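 also: peptides expressed intracellularly from a pBAD plasmid library in pooled LB shake-flask culture, induced with 0.3% L-arabinose, DNA abundance read by NGS, three biological replicates, DESeq2 with apeglm shrinkage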
Experimental details: shrunken log2 fold change of peptide-encoding DNA abundance (4.5 h post-induction vs induction); higher = less antimicrobial activity (less host growth inhibition)
Setup conditions: time post-induction: 4.5 h; library: site-saturation at positions 5, 18, 19, 20
Measured quantity: shrunken log2 fold change

1) RRIRARPPRLPRPRPRPCEGPRP: 0.0679
2) RRIRSRPPRLPRPRPRPMNGPRP: -0.205
3) RRIRHRPPRLPRPRPRPIMVPRP: -0.000687
4) RRIRVRPPRLPRPRPRPVPMPRP: 0.0779
5) RRIRLRPPRLPRPRPRPPVTPRP: 0.353
